Biological target: EBOV Mayinga (GenBank: NC_002549) (Zaire Ebolavirus (EBOV Mayinga)) (UniProt Q05320)
Assay: cell-based or functional assay
VALUE_KIND: neutralization concentration (GMC, CPE reduction on Vero C1008 cells) (µg/mL)
Answers are plain numbers, in µg/mL.

Please review the following examples before continuing.
1. 4T0243 (antibody, V domains shown) VH: QVQLQESGPGLVKPSETLSLTCTVSGGSLSTYYWNWIRQPPGKGLEWIGYIYYSSLPKYSPTLKSRITISVDTSKNQFSLKLSSVTAADTAVYYCARAPRGYSSGKYNYYGLDVWSQGTTVTVSS VL: SYELTQPPSVSVSPGHTATITCSGDALSKQFAYWYQQKPGQAPVLVISKDTERPSGIPGRFSGSSSGPTATLTISGVQAEDEADYYCQSADSSGGYYVFGSGTRVTVL
0.011
2. 5T0465 (antibody, V domains shown) VH: QVQLVQSGAEVREPGASVRISCKASGYTFTSASIHWVRQAPGQGLEWMGIIDPVVGKTRSERKFNGRLIMTRDTPTSTVYMELNSLRSDDTAMYYCARSGYYPRGMDVWGQGTTVTVSS VL: SYELTQPPSVSVSPGQTASITCSGDKLGDEYVSWYQQKPGQSPVLVISRDTRRSSGIPERFSGSNSGNTATLTISGTQAMDEADYYCQAWDSSTAVVFGGGTKLTVL
0.66

Here's the next entry for you.
# input Any idea what its neutralization concentration (GMC, CPE reduction on Vero C1008 cells) is? The binder is 4T0764 (antibody, V domains shown) VH: QVQLQESGPGLVEPSETLSLTCTVSGASISSLFWSWIRQPPGKGLEWIGYIHSDGSTNYNPFLKSRVTISIDTSQNQFSLRLTSVTAADTAVYFCARGLLGSQDSWGQGTLVTVSS VL: QSALTQPASVSGSPGQSITISCTGTSSDVGGYNYVSWYQQYPGKAPKLVIYEVTNRPSGVSNRFSGSKSGNTASLTISGLRAEDEADYHCSSYRTRNTHVIFGGGTKLTVL
# output 0.88
